Source of measurements: ChEMBL document CHEMBL5032530

Assay: AUC (0 to infinity) in ICR mouse at 3 mg/kg, iv measured upto 48 hrs
Type: ADME, organism-based
Parameters: route intravenous, dose 3 mg/kg, time <=48
Conditions: in vivo
AUC(0-inf) values by entry
readout_kind: AUC(0-inf)

chemical_string: Cc1c(F)cccc1NC(=O)Nc1ccc2c(c1O)S(=O)(=O)CCC2
reading: 365 ng·h/mL
--
chemical_string: NS(=O)(=O)c1c(Cl)ccc(NC(=O)Nc2cccc(Cl)c2Cl)c1O
reading: 3160 ng·h/mL
--
chemical_string: Cc1c(F)cccc1NC(=O)Nc1ccc2c(c1O)S(=O)(=O)CC=C2
reading: 1550 ng·h/mL
